Known GI50 of a selection of compounds
Tested on: HT-29
ASSAY COMMENT: NCI tumour cell line growth inhibition, 48 h
The source made the active and inactive calls. Rule as the data show it: active = GI50 up to about 1.1 µM and inactive = higher.
MEASURED PROPERTY: GI50

| COMPOUND | TARGET OR TEST SYSTEM | READING |
| --- | --- | --- |
| CC1=CC(=O)c2c(O)cccc2C1=O [PLUMBAGIN] | HT-29 | 1.89 µM (inactive) |
| CCOc1cc(/C=N\N(C)C)cc(/C=N\N(C)C)c1O | HT-29 | 42.3 µM (inactive) |
| COC1=C2CC(C)CC(OC)C(OC(=O)CCCN)C(C)/C=C(\C)C(OC(N)=O)C(OC)/C=C\C=C(/C)C(=O)NC(=CC1=O)C2=O (stereo unspecified) | HT-29 | 2.43 µM (inactive) |
| c1cncc(-c2ncc3cccnc3n2)c1 | HT-29 | > 100 µM (inactive) |
| COC(=O)[C@@H]1[C@H](O)CCC2=C(CC(=O)c3ccoc3)[C@H](C)CC[C@]21C | HT-29 | 44.3 µM (inactive) |
| Cc1c(C(=O)C/C(=N/NC(=O)CC#N)C(N)=O)[n+]([O-])c2ccccc2[n+]1[O-] | HT-29 | 78 µM (inactive) |
| O=P(Nc1ccccc1)(Oc1ccccc1)N(CCCl)CCCl (stereo unspecified) | HT-29 | > 100 µM (inactive) |
| N#CC(C(=O)CCCC(=O)Nc1ccc(Cl)cc1Cl)c1ccc(Cl)cc1 (stereo unspecified) | HT-29 | > 100 µM (inactive) |
| CCNC(=O)CCN(C(=O)O)S(=O)(=O)c1ccc(NC(=O)c2ccccc2)cc1 | HT-29 | 50.8 µM (inactive) |
| CCO[C@@H]1CCC([S+]([O-])c2ccc(C)cc2)=CO1 (stereo partly specified) | HT-29 | > 100 µM (inactive) |
| C[S+]=c1sc2ccccc2s1 | HT-29 | > 100 µM (inactive) |

###

System: U-251
ASSAY COMMENT: NCI tumour cell line growth inhibition, 48 h
Active and inactive are the calls of the source. No stated cut-off is given here; in the data, active = GI50 up to about 1.1 µM and inactive = higher. *1 amine or outer side, *2 acyl side, *3 side chain or, on linkers, in order; H or OH if unused. Where a SMILES comes first, the peptide text is derived from it. Bridges are numbered along the chain shown (N, C = ends). Roman numbers before positions name the chains, in order. [ ]: non-standard residue; d: D form. Actinocin(1to9) = Cc1c2oc3c(C)ccc(C(=O)[*:2])c3nc-2c(C(=O)[*:1])c(N)c1=O; NMeV = CN[CH](C(=O)O)C(C)C; Sar = CNCC(=O)O
Outcome codes: label 1 = active, label 0 = inactive

| COMPOUND | CLASSIFICATION |
| --- | --- |
| C/C(=C\CO)CC[C@@H]1[C@@]2(C)CCCC(C)(C)[C@@H]2CC[C@@]1(C)O | label 0 |
| COC1=C2CC(C)CC(OC)C(OC(=O)CCCN)C(C)/C=C(\C)C(OC(N)=O)C(OC)/C=C\C=C(/C)C(=O)NC(=CC1=O)C2=O (stereo unspecified) | label 0 |
| CCc1ccccc1N1C(=O)C(=O)C(c2nc3ccccc3s2)C(=O)C1=O | label 0 |
| O=C1Nc2ccccc2C1Cc1ccc([N+](=O)[O-])cc1 (stereo unspecified) | label 0 |
| CC1=C(C(=O)Nc2ccccc2C)C(c2ccc(C3C(C(=O)Nc4ccccc4C)=C(C)NC(C)=C3C(=O)Nc3ccccc3C)cc2)C(C(=O)Nc2ccccc2C)=C(C)N1 | label 0 |
| C[C@@H](N[C@H]1CCC[C@@H]1O)c1ccccc1.C[C@@H](N[C@H]1CCC[C@H]1O)c1ccccc1 | label 0 |
| Cc1nc(O)nc(N/N=C/c2ccc(Cl)c(Cl)c2)c1C(=O)Nc1ccc(Cl)c(Cl)c1 | label 0 |
| CCOC(=O)Cc1nn2c(=O)cc(C)nc2s1 | label 0 |
| CCOC(=O)c1ccc2c(=O)n3c(C(=O)OCC)ccc3c(=O)n12 | label 0 |
| CCOC(=O)[C@@H]1ON2O[C@H](OC3CCCCC3c3ccccc3)C[C@H]3OC(=O)[C@@H]1C32 (stereo partly specified) | label 0 |
| Cc1cc2c(cc1Cl)S(=O)(=O)OC(c1ccc([N+](=O)[O-])cc1)=N2 | label 0 |
| CC1(C)[N+]([O-])=[N+]([O-])C1(C)Br (stereo unspecified) | label 0 |
| Cc1ccc(/N=C2\OP(=O)(Nc3ccc(C)cc3)Oc3ccccc32)cc1 (stereo unspecified) | label 0 |
| C[C@H](c1ccccc1)N1C(=O)[C@@H](O)[C@H]1[C@H](CO)OCc1ccccc1 | label 0 |
| CCOC(=O)/C(C(=O)NC(C)C)=C(/N)N1CCOCC1 | label 0 |
| [N-]=[N+]=Nc1ccc2c(c1)Sc1ccccc1N2CCCCN1CCN(Cc2ccc(C(=O)c3ccccc3)cc2)CC1 | label 0 |
| Cc1cccc2c1Oc1ccccc1C2NC(=O)c1ccc([N+](=O)[O-])cc1 (stereo unspecified) | label 0 |
| O=C1/C(=C2/CCCN2)C(c2ccc[nH]2)=NN1c1ccccc1 | label 0 |
| COC(=O)C(Cc1c[nH]c2ccccc12)NP(=O)(O)OCC1OC(n2cc(Br)c(=O)[nH]c2=O)CC1O (stereo unspecified) | label 0 |
| Nc1ncnc2c1ncn2C1OC(COC2C(CO)OC(OC(C(=O)O)C(O)C(OP(=O)(O)O)C(O)C(=O)O)C(O)C2O)C(O)C1O (stereo unspecified) | label 0 |
| CC1=CC(=O)c2c(O)cccc2C1=O | label 0 |
| CC1CC(=O)Nc2ccccc2N1C(=O)CN1CCC(CCCCN(C)C)CC1 (stereo unspecified) | label 0 |
| COC(=O)C1=C(C(=O)OC)C(C(=O)c2ccc(Br)cc2)N2N=C(c3ccc(Cl)cc3)C=CC12 (stereo unspecified) | label 0 |
| CSc1nc(C)c2c(n1)SCC2 | label 0 |
| CN1CCOC(c2ccc(Cl)cc2)O1 (stereo unspecified) | label 0 |
| COC(=O)/C=C(/C(=O)OC)c1cc2ccc3c([nH]c4ccccc43)c(C)c-2c1 | label 0 |
| COC(=O)C1(C)NCCc2c1[nH]c1ccccc21 (stereo unspecified) | label 0 |
| CN1C(=O)C2C3C=C4c5ccccc5N(c5ccccc5)C4(C2C1=O)[C@H]1C(=O)N(C)C(=O)[C@@H]31 (stereo partly specified) | label 0 |
| CCC(C)C1NC(=O)C(NC(=O)c2c3nc4c(C(=O)NC5C(=O)NC(C(C)C)C(=O)N6CCCC6C(=O)N(C)CC(=O)N(C)C(C(C)C)C(=O)OC5C)ccc(C)c4oc-3c(C)c(=O)c2N)C(C)OC(=O)C(C(C)C)N(C)C(=O)CN(C)C(=O)C2CCCN2C1=O (stereo unspecified) (I: TIP[Sar][NMeV] / II: TVP[Sar][NMeV]; ester I:1-I:C, II:1-II:C; linker I:N-II:N via Actinocin(1to9); configuration not given here) | label 1 |
| CCOC(=O)NC | label 0 |
| Cc1cn([C@H]2CN(O)C[C@@H](CO)O2)c(=O)[nH]c1=O | label 0 |
| CCC12C=C(C(=O)OC)N3c4ccccc4C4CCN(CCC1)C2C43 (stereo unspecified) | label 0 |
| COC(=O)c1c(O)ccc2c1c1c(n2C)C(=O)c2ccccc2C1=O | label 0 |
| CC(C)C[C@H](NC(=O)[C@H](Cc1ccccc1)NC(=O)CCc1ccccc1)B(O)O | label 1 |
| O=C1c2ccccc2C(=O)c2c1ccc1c2N=C(c2ccc(Br)cc2)CC(c2cccc3ccccc23)N1 (stereo unspecified) | label 0 |
| c1ccc2cc3[s+]snc3cc2c1 | label 0 |
